Tested System: Sodium channel protein type 3 subunit alpha (Homo sapiens, UniProt Q9NY46)
Sequence (Q9NY46 whole entry): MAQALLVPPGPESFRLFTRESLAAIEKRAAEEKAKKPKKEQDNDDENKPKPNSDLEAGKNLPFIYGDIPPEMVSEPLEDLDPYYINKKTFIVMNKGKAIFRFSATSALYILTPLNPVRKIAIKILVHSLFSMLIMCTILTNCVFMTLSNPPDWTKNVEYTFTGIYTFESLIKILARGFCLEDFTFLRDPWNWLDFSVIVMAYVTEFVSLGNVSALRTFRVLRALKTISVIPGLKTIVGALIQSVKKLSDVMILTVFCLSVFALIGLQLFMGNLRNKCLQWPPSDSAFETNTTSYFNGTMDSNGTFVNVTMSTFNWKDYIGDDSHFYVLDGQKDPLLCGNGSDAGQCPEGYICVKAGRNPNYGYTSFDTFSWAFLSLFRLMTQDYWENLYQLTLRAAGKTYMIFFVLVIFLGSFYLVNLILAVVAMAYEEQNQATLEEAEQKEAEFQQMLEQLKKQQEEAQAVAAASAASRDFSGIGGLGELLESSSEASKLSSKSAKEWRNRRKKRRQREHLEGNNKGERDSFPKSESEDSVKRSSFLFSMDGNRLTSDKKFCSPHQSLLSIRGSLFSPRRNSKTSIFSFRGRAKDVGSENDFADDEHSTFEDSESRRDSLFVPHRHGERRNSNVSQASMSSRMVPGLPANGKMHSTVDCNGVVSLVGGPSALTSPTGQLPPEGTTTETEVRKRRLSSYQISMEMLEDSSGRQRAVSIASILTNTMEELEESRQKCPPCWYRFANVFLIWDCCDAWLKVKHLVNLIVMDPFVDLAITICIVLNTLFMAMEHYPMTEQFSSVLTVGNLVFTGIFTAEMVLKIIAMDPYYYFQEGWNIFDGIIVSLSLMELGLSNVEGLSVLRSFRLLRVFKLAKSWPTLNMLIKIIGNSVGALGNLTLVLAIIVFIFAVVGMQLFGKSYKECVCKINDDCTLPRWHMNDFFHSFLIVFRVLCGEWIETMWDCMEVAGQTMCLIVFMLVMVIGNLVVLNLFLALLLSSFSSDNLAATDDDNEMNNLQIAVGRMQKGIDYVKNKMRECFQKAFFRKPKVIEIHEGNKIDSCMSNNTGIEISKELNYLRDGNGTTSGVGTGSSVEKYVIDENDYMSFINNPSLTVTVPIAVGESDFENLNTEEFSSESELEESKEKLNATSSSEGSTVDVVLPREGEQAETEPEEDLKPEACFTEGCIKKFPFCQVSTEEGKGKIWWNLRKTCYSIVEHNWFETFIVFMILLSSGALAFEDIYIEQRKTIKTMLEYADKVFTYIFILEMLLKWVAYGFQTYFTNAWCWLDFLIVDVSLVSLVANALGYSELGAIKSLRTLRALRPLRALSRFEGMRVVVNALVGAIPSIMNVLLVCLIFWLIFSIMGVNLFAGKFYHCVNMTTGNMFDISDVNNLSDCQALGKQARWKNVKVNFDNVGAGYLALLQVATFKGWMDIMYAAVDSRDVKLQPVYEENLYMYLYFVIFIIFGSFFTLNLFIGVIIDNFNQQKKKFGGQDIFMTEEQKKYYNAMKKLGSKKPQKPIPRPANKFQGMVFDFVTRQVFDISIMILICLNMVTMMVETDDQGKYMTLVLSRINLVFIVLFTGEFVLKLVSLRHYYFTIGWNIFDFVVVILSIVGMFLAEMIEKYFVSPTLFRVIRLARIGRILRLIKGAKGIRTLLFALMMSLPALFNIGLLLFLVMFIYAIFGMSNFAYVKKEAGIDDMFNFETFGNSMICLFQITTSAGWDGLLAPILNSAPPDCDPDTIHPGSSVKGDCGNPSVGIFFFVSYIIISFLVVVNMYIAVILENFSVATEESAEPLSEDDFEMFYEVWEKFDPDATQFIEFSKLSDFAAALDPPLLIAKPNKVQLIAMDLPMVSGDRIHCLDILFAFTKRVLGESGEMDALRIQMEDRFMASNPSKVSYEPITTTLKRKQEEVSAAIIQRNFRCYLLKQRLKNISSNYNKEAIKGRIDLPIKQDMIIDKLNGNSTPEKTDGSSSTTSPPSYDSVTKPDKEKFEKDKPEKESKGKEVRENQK
Protocol Text: Inhibition of human Nav1.3 expressed in CHO cells under inactivated state by automated patch clamp electrophysiology analysis
Assay type: cell-based
Experimental Conditions: cho

Structure | IC50 (nM)
O=C(Nc1ccc(S(=O)(=O)Nc2nccs2)cc1)[C@@H]1C[C@H]1c1ccccc1 | 56

* * *

Tested System: Sodium channel protein type 3 subunit alpha (Homo sapiens)
Protocol Text: Inhibition of human Nav1.3 expressed in CHO cells under inactivated state by automated patch clamp electrophysiology analysis
Assay type: cell-based
Quick reference: IC50 of the listed items.

Compound | Comparison Sign | IC50 / µM
CS(=O)(=O)NC(=O)c1ccc(NC(=O)C2CC2c2ccc(F)c(F)c2)cc1 (racemic) | > | 30
CC1CCCCN1C(=O)c1ccc(NS(=O)(=O)c2ccc3[nH]c(=O)[nH]c3c2)cc1 (stereo not given) | > | 30
CC(CCc1ccc(O)cc1)NC(=O)Nc1ccc(S(=O)(=O)N2CCCC2)cc1 (stereo not given) | = | 20
CC(=O)NS(=O)(=O)c1ccc(NC(=O)CC(C)c2ccccc2)cc1 (stereo not given) | = | 21
O=C(Nc1ccc(S(=O)(=O)Nc2nccs2)cc1)C1CC1c1ccc(F)c(F)c1 (racemic) | = | 0.02

* * *

Tested System: Sodium channel protein type 5 subunit alpha (Homo sapiens, UniProt Q14524)
Sequence (Q14524 whole entry): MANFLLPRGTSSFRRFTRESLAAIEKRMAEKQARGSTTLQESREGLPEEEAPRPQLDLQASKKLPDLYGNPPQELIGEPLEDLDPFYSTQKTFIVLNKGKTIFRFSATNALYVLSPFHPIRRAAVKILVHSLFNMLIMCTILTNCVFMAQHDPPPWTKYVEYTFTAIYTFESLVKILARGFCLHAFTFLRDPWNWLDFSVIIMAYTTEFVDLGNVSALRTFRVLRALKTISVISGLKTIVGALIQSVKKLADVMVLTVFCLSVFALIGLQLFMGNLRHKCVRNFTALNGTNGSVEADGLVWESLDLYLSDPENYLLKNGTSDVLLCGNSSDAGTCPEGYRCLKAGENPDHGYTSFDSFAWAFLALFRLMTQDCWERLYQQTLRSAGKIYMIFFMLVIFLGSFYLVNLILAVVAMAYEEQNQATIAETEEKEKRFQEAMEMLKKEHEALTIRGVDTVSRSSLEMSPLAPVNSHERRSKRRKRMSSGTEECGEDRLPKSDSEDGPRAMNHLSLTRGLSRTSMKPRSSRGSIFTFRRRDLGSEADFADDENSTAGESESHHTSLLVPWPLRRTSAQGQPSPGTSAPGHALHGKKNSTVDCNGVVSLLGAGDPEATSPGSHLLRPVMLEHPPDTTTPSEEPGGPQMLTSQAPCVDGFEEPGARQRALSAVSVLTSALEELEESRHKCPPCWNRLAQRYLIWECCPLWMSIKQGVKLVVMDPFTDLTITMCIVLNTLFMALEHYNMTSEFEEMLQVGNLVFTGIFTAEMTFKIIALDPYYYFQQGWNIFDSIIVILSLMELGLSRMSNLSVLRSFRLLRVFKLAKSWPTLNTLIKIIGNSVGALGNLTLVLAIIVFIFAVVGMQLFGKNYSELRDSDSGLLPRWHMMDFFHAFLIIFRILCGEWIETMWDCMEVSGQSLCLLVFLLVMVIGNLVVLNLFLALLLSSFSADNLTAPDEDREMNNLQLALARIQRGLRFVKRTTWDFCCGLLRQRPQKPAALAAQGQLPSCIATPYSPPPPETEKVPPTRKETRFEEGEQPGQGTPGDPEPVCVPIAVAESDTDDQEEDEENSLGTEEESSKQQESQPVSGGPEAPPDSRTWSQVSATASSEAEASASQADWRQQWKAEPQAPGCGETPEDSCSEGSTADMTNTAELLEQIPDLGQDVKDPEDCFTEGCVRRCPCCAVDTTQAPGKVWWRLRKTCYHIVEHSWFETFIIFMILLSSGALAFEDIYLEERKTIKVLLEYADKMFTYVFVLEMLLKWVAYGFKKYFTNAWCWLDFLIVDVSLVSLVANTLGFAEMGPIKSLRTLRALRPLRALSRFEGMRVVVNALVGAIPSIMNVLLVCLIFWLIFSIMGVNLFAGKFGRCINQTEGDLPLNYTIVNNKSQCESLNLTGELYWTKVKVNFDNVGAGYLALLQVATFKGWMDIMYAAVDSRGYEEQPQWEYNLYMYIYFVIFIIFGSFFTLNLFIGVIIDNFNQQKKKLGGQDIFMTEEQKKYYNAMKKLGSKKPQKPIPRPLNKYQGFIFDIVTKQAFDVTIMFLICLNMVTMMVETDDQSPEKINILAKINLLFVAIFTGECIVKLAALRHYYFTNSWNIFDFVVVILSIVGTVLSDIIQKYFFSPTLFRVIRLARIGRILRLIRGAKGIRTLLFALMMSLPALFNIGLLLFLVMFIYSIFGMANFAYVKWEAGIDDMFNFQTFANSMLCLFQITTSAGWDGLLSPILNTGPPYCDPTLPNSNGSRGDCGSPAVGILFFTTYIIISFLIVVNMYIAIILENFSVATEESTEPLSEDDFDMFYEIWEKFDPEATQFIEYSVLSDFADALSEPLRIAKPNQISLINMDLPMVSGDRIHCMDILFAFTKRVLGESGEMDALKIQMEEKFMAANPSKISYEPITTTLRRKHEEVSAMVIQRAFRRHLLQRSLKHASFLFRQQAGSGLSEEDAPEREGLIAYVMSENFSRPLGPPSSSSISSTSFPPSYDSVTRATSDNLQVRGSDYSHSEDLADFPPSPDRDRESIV
Protocol Text: Inhibition of human Nav1.5 expressed in CHO cells under inactivated state by automated patch clamp electrophysiology analysis
Format: cell-based
Criterion: IC50 strictly under 3 µM. Met: YES. Not met: NO.

Structure | Group Label
O=C(Nc1nccs1)c1ccc(NC(=O)[C@@H]2C[C@H]2c2ccccc2)cc1 | NO
CN(C)CCC=C1c2ccccc2CCc2ccccc21 | YES
O=C(Nc1ccc(S(=O)(=O)Nc2nccs2)cc1)c1cccn1Cc1ccc(Cl)cc1 | NO
O=C(Nc1ccc(S(=O)(=O)Nc2nccs2)cc1)c1cc(Br)c(Br)n1Cc1ccccc1 | NO
O=C(Nc1ccc(S(=O)(=O)Nc2nccs2)cc1)c1cc(Br)c(Br)n1-c1ccccc1 | NO

* * *

Tested System: Sodium channel protein type 1 subunit alpha (Homo sapiens)
Protocol Text: Inhibition of human Nav1.1 expressed in Xenopus laevis oocytes at closed state at 1 uM by two electrode voltage-clamp assay
Format: cell-based
Experimental Conditions: Oocyte
Calls of active or inactive are those of the source. The calls are words filed in the database; no cut-off is given here.

Compound | inhibition
CS(=O)(=O)NC(=O)c1cccc(OC[C@@H]2C[C@H]2c2ccccc2)c1 | inactive
CS(=O)(=O)NC(=O)c1ccc(NC(=O)C2CC2c2ccc(F)c(F)c2)cc1 (racemic) | inactive
CC(Oc1ccc(Cl)cc1)C(=O)Nc1ccc(S(=O)(=O)Nc2nccs2)cc1 (stereo not drawn) | inactive
O=C(Nc1ccc(S(=O)(=O)Nc2nccs2)cc1)C1CC1c1ccc(F)c(F)c1 (racemic) | inactive
CS(=O)(=O)NC(=O)c1ccc(NC(=O)c2cccn2Cc2ccc(Cl)cc2)cc1 | inactive
Cc1nn(C)cc1/C=C(\C#N)C(=O)Nc1ccc(S(=O)(=O)Nc2nccs2)cc1 | inactive
O=C(Nc1ccc(S(=O)(=O)Nc2nccs2)cc1)C1Cc2cc(Cl)ccc2O1 (stereo not drawn) | inactive
CS(=O)(=O)NC(=O)c1ccc(NC(=O)[C@@H]2C[C@H]2c2ccccc2)cc1 | inactive
